# assay_text: yeast display, Sf9 membrane polyspecificity reagent, FACS + sequencing; frameworks hold sequencing errors

>  <primary_sequence>
QVQLVESGGGLGQAGGSLRLSCAASGSIYNDNVMGWYRQAPGKERELVAGISRSGTRTYYADSVKGRFTISRDNAKNTVYLQMNSLKPEDTAVYYCAAAYGQARRYNASQYGSWGQGTQVTVSS

>  <polyreactivity (PSR sort gate)>
high polyreactivity

$$$$
>  <primary_sequence>
QVQLVESGGGLVQAGGSLRLSSGASGSTFVTYAMGWYRQAPGKEREFVAAISSTGTGRTYYADSVKGRFTISRDNAKNPVYLQMNSLKPEDTAVYYCAADLYGTYDYWGQGTQVTVSS

>  <polyreactivity (PSR sort gate)>
low polyreactivity

$$$$
>  <primary_sequence>
QVQLVESGGGLVQAGGSLRLSCAASGGIFDIYAMGWYRQAPGKERELVAANRGSGGRTYYADSVKGRFTISRDNAKNTVYLQMNSLKPEDTAVYYCAARPSIVTGLRYGYWGQGTQVTVSS

>  <polyreactivity (PSR sort gate)>
high polyreactivity

$$$$
>  <primary_sequence>
QVQLVESGGGLVQAGGSLRLSCDASGSIFYRYAMGWYRQAPGKERELVASISSGVSTNYADSVKGRFTISRDNAKNTVYLQMNSLKPEDTAVYYCAAYYRGWSSSYWYPAYNYWGHGTQVTVSS

>  <polyreactivity (PSR sort gate)>
low polyreactivity

$$$$
>  <primary_sequence>
QVQLVESGGGLVQAGGSLRLSCAASGRTFDVNAMGWYRQAPGKERELVAAIRISGGSTYYADSVKGRFTISRDNAKNTVYLQMNSLKPEDTAVYYCAAYERRYRNAYDYWGQGTQVTVSS

>  <polyreactivity (PSR sort gate)>
high polyreactivity

$$$$
>  <primary_sequence>
QVQHVESGGGLVQAGCSLRLSCAASGRTFTYYAMGWYRQARGKESELVATISWRGSSTYYADSVKGRFTISRDNAKNTVYLQMNSLKPEDTAFYYCAARTYRWGYEDNYWGQGTQVTVSS

>  <polyreactivity (PSR sort gate)>
high polyreactivity

$$$$
>  <primary_sequence>
QVQLVESGGGLVQAGGSLRLSCAASGRIFVKYVMGWYRQAPGKERELVAAITYTGGTYYADSVKGRFTISRDTAKNTVYLQMNSLKPEETAVYYCAADYQGSYYSGSYQTWTEYYYWGQGTQVTVSS

>  <polyreactivity (PSR sort gate)>
high polyreactivity

$$$$
>  <primary_sequence>
QVQLVESGGGLVQAGGSLRLSSAASGLIFYSYTMGWNRQAPGKERELVAVISRSGTSTYYADSVKGRFTISRDNAKNTVYLQMNSLKPEDTSVYYCAALTRSGPYAYEYWGQGTQVTVSS

>  <polyreactivity (PSR sort gate)>
high polyreactivity

$$$$
>  <primary_sequence>
QVQLVESGGGLVQAGGSLRLSCAASGRIFRAYTMGWYRQAPGKERELVAAITWRGGRTYYADSVKGRFTISRDNAKNTVYLQMNSLKPEDTAVYYCAAVRKYRAMDYWGQGTQVTVSS

>  <polyreactivity (PSR sort gate)>
high polyreactivity

$$$$
>  <primary_sequence>
QVQHVESGGGLVQAGGSLRLSCAASGRISQIYAMGWYRQAPGKERELVARITSTDSTYYADSVKGRFTISRDNAKNTVYLQMNSLKPEDTAVYYCAASWWSPYDYWGQGTQVTVSS

>  <polyreactivity (PSR sort gate)>
low polyreactivity

$$$$
>  <primary_sequence>
QVQLVESGGGLVQAGGSLRLSCAASGSTFYANVMGWYRQAPGKDRELVGAIEGSGGRTDYADSVKGRFTISRDNAKNTVYLQMHSLKPEDTAVYYCAKKRIVPVKQFGRDYNYWGQGTQVTVSS

>  <polyreactivity (PSR sort gate)>
high polyreactivity

$$$$
